tested on: HL-60(TB) leukemia; test: NCI tumour cell line growth inhibition, 48 h
# TGI per record follows

Here is how some compounds turned out for TGI.
>>> result("CC(C)(C)c1c(C(C)(C)C)c(=O)c1=O")
"> 100 µM"
>>> result("Fc1cc(-c2nnc3n2N=C(c2ccc(Cl)cc2Cl)CS3)c(Cl)cc1Cl")
"> 100 µM"
>>> result("O=C(OCc1ccccc1C1CSCSC1)c1cc(C(=O)OCc2ccccc2C2CSCSC2)c(C(=O)OCc2ccccc2C2CSCSC2)cc1C(=O)OCc1ccccc1C1CSCSC1")
"> 100 µM"
>>> result("COC(=O)c1cc2c3c(ccc2[nH]1)N(C(=O)c1cc2c4c(ccc2[nH]1)N(C(=O)c1cc2c5c(ccc2[nH]1)N(C(N)=O)CC5)CC4)CC3")
"> 70.5 µM"

Below: the item to evaluate.
[in] Please supply the value of reported TGI for the item `NC(=S)N/N=C\CC(O)(C(F)(F)F)C(F)(F)F`
[out] > 10 µM

====

tested on: MOLT-4 leukemia; experiment: NCI tumour cell line growth inhibition, 48 h
# TGI per record follows
Number in µM, nothing else.

>>> numeric_readout("Nc1ncnc2c1c(-c1ccc(Oc3ccccc3)cc1)nn2C[C@@H]1SSC[C@@H]1O")
0.119

[in] Please supply the value of reported TGI for the item CCCNC(=O)CCC(C)[C@H]1CCC2C3C(C[C@H](OC(C)=O)[C@@]21C)[C@@]1(C)CCC2(C[C@H]1C[C@H]3OC(C)=O)OOC1(CCCCC1)OO2 (some centres undefined)
[out] 5.14

[in] Please supply the value of reported TGI for the item O=C(O)C1C(C(=O)O)C2(Cl)C(Cl)=C(Cl)C1(Cl)C2(Cl)Cl.[Cd] (centres undefined)
[out] 60.9

[in] Please supply the value of reported TGI for the item `Fc1c[c-]c(-c2ccccn2)c(F)c1.[CH3-].[Pt+2].c1ccc(P(C[PH+](c2ccccc2)c2ccccc2)c2ccccc2)cc1`
[out] 5.81

[in] Please supply the value of reported TGI for the item `O=c1c2c(nc3n1CCC3)sc1c(O)c(Br)ccc12`
[out] 55.1

[in] Please supply the value of reported TGI for the item `C=C[C@@](C)(/C=C/c1ccc(O)cc1)CCC=C(C)C`
[out] 28

[in] Please supply the value of reported TGI for the item `O=C1C=C(N2CCN(c3ccccn3)CC2)C(=O)c2c(O)ccc(O)c21`
[out] 42.2

[in] Please supply the value of reported TGI for the item `CC1=C2C(=O)c3ccccc3C(=O)[C@H]2C[C@@H](N2CCCCCC2=O)O1`
[out] 58.5

====

# GI50 per record follows
test system: TK-10 renal; experiment: NCI tumour cell line growth inhibition, 48 h

Here is how some compounds turned out for GI50.
>>> result("COc1ccc2cc(-c3c(-c4ccncc4)nc(-c4ccc(S(C)=O)cc4C)n3C)ccc2c1 (stereo not drawn)")
"7.62 µM"
>>> result("CN(C)CCCC1(c2ccc(F)cc2)OCc2cc(-c3cncc4ccccc34)ccc21 (stereo not drawn)")
"2.83 µM"

Below: the item to evaluate.
[in] Please supply the value of reported GI50 for the item COc1ccc(C2ONC3=NCCN32)cc1 (stereo not drawn)
[out] > 100 µM

====

system: PC-3 prostate; assay: NCI tumour cell line growth inhibition, 48 h
Measured quantity: TGI

Here is how some compounds turned out for TGI.
>>> result("CC12CC(c3ccccc3O1)C(C(=O)Nc1cccc(F)c1)C(=O)N2 (stereo not drawn)")
"> 100 µM"
>>> result("NS(=O)(=O)c1cc(S(N)(=O)=O)c(NC(=O)N(c2ccccc2)c2ccccc2)c(Cl)c1Cl")
"> 100 µM"

Below: the item to evaluate.
[in] Please supply the value of reported TGI for the item CCCCCCOP(=O)(OCCCCCC)OC(C(=O)OC)C(F)(F)F (stereo not drawn)
[out] > 100 µM
